- EXPERIMENT_DESCRIPTION: Oral bioavailability in CD-1 mouse at 10 mg/kg administered via gavage as single dose
- Type: ADME, organism-based
- ASSAY_SETUP: in vivo
For each record, write down the corresponding bioavailability.
In your response, put the unit directly after the numeric value.

I'd like to know its bioavailability. The compound in question is COc1cc([C@](O)(CCN(C)C)[C@@H](c2cc3cc(C#N)ccc3nc2OC)c2cccc(C)c2F)cc(OC(F)F)n1 (racemic)
66%

I'd like to know its bioavailability. The compound in question is COc1nc2ccc(Br)cc2cc1[C@@H](c1ccnc(OC)c1OC)[C@@](O)(CCN(C)C)c1cc(SC)nc(SC)c1 (racemic)
41%

I'd like to know its bioavailability. The compound in question is CCSc1cc([C@](O)(CCN(C)C)[C@H](c2ccccc2)c2cc3cc(Br)ccc3nc2OC)cc(SCC)n1 (racemic)
24%

I'd like to know its bioavailability. The compound in question is COc1cc([C@](O)(CCN(C)C)[C@@H](c2cc3cc(Br)ccc3nc2OC)c2cccc(OC)c2F)cc(OC(C)C)n1 (racemic)
43%

I'd like to know its bioavailability. The compound in question is CCOc1cc([C@](O)(CCN(C)C)[C@@H](c2cc3cc(Br)ccc3nc2OC)c2c(OC)cncc2OC)cc(OC(C)C)n1 (racemic)
58%

I'd like to know its bioavailability. The compound in question is COc1cc([C@](O)(CCN(C)C)[C@@H](c2cc3cc(C#N)ccc3nc2OC)c2cccc(OC)c2F)cc(SC)n1 (racemic)
28%

I'd like to know its bioavailability. The compound in question is CCOc1cc([C@](O)(CCN(C)C)[C@@H](c2cc3cc(Br)ccc3nc2OC)c2cccc(OC)c2F)cc(OC)n1 (racemic)
46%

----------
- EXPERIMENT_DESCRIPTION: Apparent volume of distribution during terminal phase in CD-1 mouse at 2 to 3 mg/kg, iv administered as single bolus dose
- Format: ADME, organism-based
- ASSAY_SETUP: in vivo
READOUT_KIND: Vz/F

I'd like to know its Vz/F. The molecule in question is CCSc1cc([C@](O)(CCN(C)C)[C@@H](c2cc3cc(Br)ccc3nc2OC)c2cccc3c2OCO3)cc(SCC)n1 (racemic)
9.4 L/kg

I'd like to know its Vz/F. The molecule in question is CCSc1cc([C@](O)(CCN(C)C)[C@H](c2ccccc2)c2cc3cc(Br)ccc3nc2OC)cc(SCC)n1 (racemic)
30 L/kg

I'd like to know its Vz/F. The molecule in question is COc1cc([C@](O)(CCN(C)C)[C@@H](c2cc3cc(Br)ccc3nc2OC)c2cccc(OC)c2F)cc(OC(F)F)n1 (racemic)
18 L/kg

I'd like to know its Vz/F. The molecule in question is COc1cccc([C@H](c2cc3cc(C#N)ccc3nc2OC)[C@@](O)(CCN(C)C)c2cc(SC)nc(SC)c2)c1F (racemic)
53 L/kg

I'd like to know its Vz/F. The molecule in question is COc1nc2ccc(Br)cc2cc1[C@@H](c1ccnc(OC)c1OC)[C@@](O)(CCN(C)C)c1cc(SC)nc(SC)c1 (racemic)
64 L/kg

I'd like to know its Vz/F. The molecule in question is CCSc1cc([C@](O)(CCN(C)C)[C@@H](c2cc3cc(C#N)ccc3nc2OC)c2cccc(C)c2F)cc(SCC)n1 (racemic)
41 L/kg

I'd like to know its Vz/F. The molecule in question is COc1cc([C@](O)(CCN(C)C)[C@@H](c2cc3cc(Br)ccc3nc2OC)c2cccc(OC)c2F)cc(SC)n1 (racemic)
32 L/kg

I'd like to know its Vz/F. The molecule in question is CCOc1cc([C@](O)(CCN(C)C)[C@@H](c2cc3cc(Br)ccc3nc2OC)c2cccc(OC)c2F)cc(OC)n1 (racemic)
51 L/kg

I'd like to know its Vz/F. The molecule in question is COc1cc([C@](O)(CCN(C)C)[C@@H](c2cc3cc(C#N)ccc3nc2OC)c2cccc(OC)c2F)cc(SC)n1 (racemic)
54 L/kg

I'd like to know its Vz/F. The molecule in question is CCSc1cc([C@](O)(CCN(C)C)[C@@H](c2cc3cc(Br)ccc3nc2OC)c2cccc(OC)c2F)cc(SCC)n1 (racemic)
14 L/kg

I'd like to know its Vz/F. The molecule in question is COc1cc([C@](O)(CCN(C)C)[C@@H](c2cc3cc(Br)ccc3nc2OC)c2ccnc(OC)c2OC)cc(OC2CCC2)n1 (racemic)
33 L/kg

I'd like to know its Vz/F. The molecule in question is COc1cccc([C@H](c2cc3cc(Br)ccc3nc2OC)[C@@](O)(CCN(C)C)c2cc(SC)nc(SC)c2)c1F (racemic)
15 L/kg

I'd like to know its Vz/F. The molecule in question is COc1cc([C@](O)(CCN(C)C)[C@@H](c2cc3cc(C#N)ccc3nc2OC)c2ccnc(OC)c2OC)cc(OC(F)F)n1 (racemic)
40 L/kg

I'd like to know its Vz/F. The molecule in question is COc1nc2ccc(C#N)cc2cc1[C@@H](c1cccc(C)c1F)[C@@](O)(CCN(C)C)c1cc(SC)nc(SC)c1 (racemic)
79 L/kg

----------
Values of pIC50 reported for Voltage-gated inwardly rectifying potassium channel KCNH2 (Homo sapiens) appear below.
pIC50: −log10 of the molar value.

I'd like to know its pIC50. The compound in question is COc1cc([C@](O)(CCN(C)C)[C@@H](c2cc3cc(Br)ccc3nc2OC)c2cccc(OC)c2F)cc(SC)n1 (racemic)
< 4.52

I'd like to know its pIC50. The compound in question is COc1cc([C@](O)(CCN(C)C)[C@H](c2cccc(C)c2)c2cc3cc(Br)ccc3nc2OC)cc(OC(C)C)n1 (racemic)
< 5.00

I'd like to know its pIC50. The compound in question is CCSc1cc([C@](O)(CCN(C)C)[C@@H](c2cc3cc(C#N)ccc3nc2OC)c2cccc(OC)c2F)cc(SCC)n1 (racemic)
< 5.00

I'd like to know its pIC50. The compound in question is COc1cc([C@](O)(CCN(C)C)[C@@H](c2cc3cc(Br)ccc3nc2OC)c2ccnc(OC)c2OC)cc(OC(F)F)n1 (racemic)
< 5.00

----------
- EXPERIMENT_DESCRIPTION: Intrinsic clearance in human liver microsomes assessed per mg protein
- Type: ADME, Microsome
- ASSAY_SETUP: read-out: CLH
READOUT_KIND: microsomal CLint (µL/min/mg)
# number only, unit µL/min/mg dropped from output

I'd like to know its microsomal CLint. The compound in question is COc1cc([C@](O)(CCN(C)C)[C@@H](c2cc3cc(Br)ccc3nc2OC)c2ccnc(OC)c2OC)cc(OC(F)F)n1 (racemic)
2.1

I'd like to know its microsomal CLint. The compound in question is COc1nc2ccc(Br)cc2cc1[C@@H](c1ccnc(OC)c1OC)[C@@](O)(CCN(C)C)c1cc(SC)nc(SC)c1 (racemic)
8.8

I'd like to know its microsomal CLint. The compound in question is COc1cc([C@](O)(CCN(C)C)[C@@H](c2cc3cc(Br)ccc3nc2OC)c2ccnc(OC)c2OC)cc(OC(C)C)n1 (racemic)
6.4

I'd like to know its microsomal CLint. The compound in question is COc1cc([C@](O)(CCN(C)C)[C@@H](c2cc3cc(Br)ccc3nc2OC)c2cccc(OC)c2F)cc(OC)n1 (racemic)
2.2

I'd like to know its microsomal CLint. The compound in question is COc1cc([C@](O)(CCN(C)C)[C@@H](c2cc3cc(Br)ccc3nc2OC)c2ccnc(OC)c2OC)cc(OC2CCC2)n1 (racemic)
2.5

I'd like to know its microsomal CLint. The compound in question is COc1cc([C@](O)(CCN(C)C)[C@@H](c2cc3cc(Br)ccc3nc2OC)c2cccc(OC)c2F)cc(SC)n1 (racemic)
4.8

I'd like to know its microsomal CLint. The compound in question is CCOc1cc([C@](O)(CCN(C)C)[C@@H](c2cc3cc(Br)ccc3nc2OC)c2ccnc(OC)c2OC)cc(OC(C)C)n1 (racemic)
1.8

----------
- EXPERIMENT_DESCRIPTION: Apparent volume of distribution during terminal phase in CD-1 mouse at 2 to 3 mg/kg, iv administered as single bolus dose
- Type: ADME, organism-based
- ASSAY_SETUP: in vivo
For each record, write down the corresponding Vz/F.
In your response, put the unit directly after the numeric value.

I'd like to know its Vz/F. The molecule in question is CCOc1cc([C@](O)(CCN(C)C)[C@H](c2cccc(C)c2)c2cc3cc(Br)ccc3nc2OC)cc(OC)n1 (racemic)
45 L/kg

I'd like to know its Vz/F. The molecule in question is CCCOc1cc([C@](O)(CCN(C)C)[C@@H](c2cc3cc(Br)ccc3nc2OC)c2ccnc(OC)c2OC)cc(OC)n1 (racemic)
44 L/kg

I'd like to know its Vz/F. The molecule in question is COc1cc([C@](O)(CCN(C)C)[C@@H](c2cc3cc(Br)ccc3nc2OC)c2ccnc(OC)c2OC)cc(OC(C)C)n1 (racemic)
19 L/kg

I'd like to know its Vz/F. The molecule in question is CCSc1cc([C@](O)(CCN(C)C)[C@@H](c2cc3cc(C#N)ccc3nc2OC)c2cccc(OC)c2F)cc(SCC)n1 (racemic)
93 L/kg

I'd like to know its Vz/F. The molecule in question is COc1cc([C@](O)(CCN(C)C)[C@@H](c2cc3cc(Br)ccc3nc2OC)c2ccnc(OC)c2OC)cc(OC(F)F)n1 (racemic)
27 L/kg

I'd like to know its Vz/F. The molecule in question is COc1cc([C@](O)(CCN(C)C)[C@@H](c2cc3cc(C#N)ccc3nc2OC)c2cccc(C)c2F)cc(OC(F)F)n1 (racemic)
38 L/kg

I'd like to know its Vz/F. The molecule in question is CCOc1cc([C@](O)(CCN(C)C)[C@@H](c2cc3cc(Br)ccc3nc2OC)c2ccnc(OC)c2OC)cc(OC)n1 (racemic)
28 L/kg
